Test system: SK-OV-3 ovarian
Assay: NCI-60 one-dose screen, 48 h (100 = growth as untreated, 0 = no growth, -100 = all killed)
Details: 10 µM unless noted
This is part of a sample that, as a whole, favours compounds with a hit. Of some 83,000 tested, about 20% had one in any assay.
Property Label: growth (%)
// units = %; emit number, no label

Field request: growth | item: Cc1ccc([C@H]2C(C(=O)c3ccc(Cl)cc3)C3(N[C@@H]2c2ccccc2)C(=O)Nc2ccccc23)cc1 (stereo partly drawn)
53.2

// lookup growth for `CC(=O)c1cccc(NC(=O)CCC(=O)NS(=O)(=O)c2ccc(C)cc2)c1`
99.6

What measured growth goes with COc1cc2c(c(OC)c1OC)C(=O)CC(c1cccc(NC(=O)c3cc([N+](=O)[O-])ccc3Cl)c1)O2 (stereo not drawn) ?
57.1

So what does the record say about growth for `COc1ccc(C2(SCCNCc3cc(N(C)C)ccn3)c3ccccc3C=Cc3ccccc32)cc1` ?
36.5

For the compound COc1cc2c(c(OC)c1OC)C(=O)CC(c1cccc(NC(=O)c3cc(NC(=O)[C@H](C)N)ccc3Cl)c1)O2 (stereo partly drawn) , what growth is on record?
102

GET /values?readout=growth&item= `N#Cc1c(-c2cccc3ccccc23)cc(-c2cccc(OCC(=O)O)c2)[nH]c1=O`
108

Please report the recorded growth for `O=C(CSc1nc2ccccc2c(=O)[nH]1)NCCN1CCCCC1` .
107

Report growth for `Cn1cc(-c2nc(N)nnc2-c2c[nH]c3ccc(Br)cc23)c2cc(Br)cnc21` please.
9.61

GET /values?readout=growth&item= C=C1CCC2C3(C)COC(c4ccccc4F)OC3CCC2(C)C1CC(O)C1=CCOC1=O (stereo not drawn)
110

Please look up its growth: `COc1ccc(C(=O)/C=C/c2cccc(Cl)c2)cc1S(N)(=O)=O`
49.8

For the compound `C/C(=N\N=C1/C(=O)Nc2ccc(Cl)cc21)c1ccc2c(c1)Nc1ccccc1S2` , what growth is on record?
50.4

If you can, please state the reported growth value of `O=c1[nH]c2ccccc2cc1CSc1cccc(Nc2nccc(-c3ccc4ccccc4c3)n2)c1` .
115

For the compound CCOC(=O)C(N=Nc1ccc(S(=O)(=O)N=C(N)N)cc1)C(C)=O (stereo not drawn) , what growth is on record?
138

What does the data say about its growth? Entry: CC1CCCCN1CCCNC(=O)N/C(N)=N/c1nc2ccccc2s1 (stereo not drawn)
58.8

Return reported growth; argument: `Cc1ccc(C(SCCNCc2cc(N(C)C)ccn2)(c2ccccc2)c2ccccc2)cc1`
-10.5

I am curious: what growth value has been reported for `COc1ccc(C(=O)/C=C/c2ccc3ccccc3c2)cc1S(N)(=O)=O` ?
22.5

Data request, read-out growth, for `O=c1c2ccccc2nc(-c2ccccc2)n1/N=C/c1ccc2ccccc2c1`
68.5

What does the data say about its growth? Entry: COc1cc2c(c(OC)c1OC)C(=O)CC(c1cccc(NC(=O)[C@@H](N)CC(C)C)c1)O2 (stereo partly drawn)
109

Would you kindly share the measured growth for `CCN(CC)C(=O)N/C(N)=N/c1nc2ccccc2s1` ?
71.9

Recorded growth of `COc1ccc2c(c1)C(=N/N=C(\C)c1ccc(OC)c(S(N)(=O)=O)c1)C(=O)N2` , please.
97.6

Given COc1cc(C2CC(c3cc(OC)c(OC)c(OC)c3)=Nc3c(N)nc(N)nc3N2)ccc1Oc1nc(NCCO)nc(N2CCOCC2)n1 (stereo not drawn) , state its recorded growth.
104

May I ask what growth has been recorded for `Cc1ccc(-n2c(-c3cc4ccccc4nc3Cl)noc2=O)cc1` ?
80.1

Given the entry Cc1sc2c(c1C)C(c1ccc(Cl)cc1)=N[C@@H](CC(=O)NCCCCCNC(=O)COc1ccc(C3CCC(=O)NC3=O)cc1)c1nnc(C)n1-2 (stereo partly drawn) , report its measured growth.
-16.9

Value lookup for growth; key = `C=Cn1cc(C(=O)O)c(=O)c2cc(F)c(N3CCN(c4nccc(-c5nccs5)n4)CC3)cc21`
-35.8

Item under review: `COc1cc2nc(SCc3ccccc3)n(-c3ccc(Cl)cc3)c(=O)c2cc1OC` . Reported growth?
-19.1

What value of growth has been recorded for this entry: `COc1ccc(C(=O)/C=C/c2ccccc2Cl)cc1S(N)(=O)=O`
110

Given `COc1ccc2oc3c4[nH]c5ccccc5c4c4c(c3c2c1)C(=O)N(C(=O)OC(C)(C)C)C4=O` , state its recorded growth.
-25.3

For the compound shown here, `NS(=O)(=O)c1ccc(-n2cc(-c3cccc(NC(=O)c4ccc(Cl)c(C(F)(F)F)c4)c3)nn2)cc1` , give the reported growth.
55.7

Bench note: what growth did `COc1cc(/C=C/C(=O)c2nnn(-c3ccc(Cl)cc3)c2C)cc(OC)c1OC` show?
59.4

Could you tell me which growth is on file for `Cc1c(C(=O)NNC(=O)c2ccc(Cl)cc2)nnn1-c1ccc(Cl)cc1` ?
82.3

Please report the recorded growth for `CN(C)c1ccnc(NCCCSC(c2ccccc2)(c2ccccc2)c2ccccc2)c1` .
63

Requested field: growth. Item: `COc1ccc(C(=O)/C=C/c2ccc(OCc3ccc(F)cc3)c(OC)c2)cc1OC`
40.2

# input compound: O=C(NNc1nc2cc(F)ccc2n2c(CN3CC4CNCC4C3)ccc12)c1ccncn1 (stereo not drawn) ; wanted: its growth
31.5

Any idea what growth was measured for `NS(=O)(=O)c1ccc(-n2cc(-c3cccc(NC(=O)c4cc(Cl)cc(Cl)c4)c3)nn2)cc1` ?
90.2

I am curious: what growth value has been reported for CC(/C=C1\SC(=S)N(CCCC(=O)NC(CC(C)C)C(=O)O)C1=O)=C\c1ccccc1 (stereo not drawn) ?
106

Data request, read-out growth, for `COc1cc(OC)c2c3nc4cc(C)c(C)cc4nc3n(CCN(C)C)c2c1`
103

Reported growth, compound `N#Cc1c(-c2cccc(O)c2O)cc(-c2ccc3ccccc3c2)[nH]c1=O` : ____
77.6

growth for `CN1C(=O)/C(=C/c2ccc(C(=O)Nc3ncc(Cc4ccc(Cl)cc4Cl)s3)cc2)SC1=S` ?
53.3
